test system: Bacteroides stercoris; assay: growth AUC relative to DMSO control (median of replicates) (fraction); higher = more growth (less inhibition), active = hit call of the paper; conditions: 20 µM; 24 h
Binary classification by growth AUC, with 1 as an inclusive lower bound for fulfilled; all other cases are not fulfilled.

Please review the following examples before continuing.
Compound	Label Class
COc1cc(OC)n2nc(S(=O)(=O)Nc3c(Cl)ccc(C)c3Cl)nc2n1	not fulfilled
Cc1cc(Cl)ccc1O[C@H](C)C(=O)O	fulfilled

Task: Kindly determine if growth AUC recorded for COP(=S)(OC)Oc1ccc([N+](=O)[O-])cc1 is above or exactly 1.
Output: fulfilled

Task: Kindly determine if growth AUC recorded for CCOP(=S)(OCC)SCS(=O)CC (configuration not stated) is above or exactly 1.
Output: fulfilled

Task: Kindly determine if growth AUC recorded for O=[N+]([O-])c1ccc2ccc3cccc4ccc1c2c34 is above or exactly 1.
Output: not fulfilled

Task: Kindly determine if growth AUC recorded for CC(C)(C)C(O)C(Cc1ccc(Cl)cc1Cl)n1cncn1 (mixture of isomers) is above or exactly 1.
Output: not fulfilled

Task: Kindly determine if growth AUC recorded for CC(C)N(Cc1ccccc1)C(=O)C(C)(C)C is above or exactly 1.
Output: not fulfilled

Task: Kindly determine if growth AUC recorded for O=C(Nc1ccccc1)c1ccccc1I is above or exactly 1.
Output: fulfilled

Task: Kindly determine if growth AUC recorded for CCNc1nc(NC(C)C(C)C)nc(SC)n1 (configuration not stated) is above or exactly 1.
Output: fulfilled

Task: Kindly determine if growth AUC recorded for COC(=O)Nc1nc2ccccc2[nH]1 is above or exactly 1.
Output: not fulfilled

====

tested on: Bifidobacterium longum subsp. longum; test: growth AUC relative to DMSO control (median of replicates) (fraction); higher = more growth (less inhibition), active = hit call of the paper; details: 20 µM; 24 h
Binary classification by growth AUC, with 1 as an inclusive lower bound for criterion met; all other cases are criterion not met.

Compound	Target System	Label Class
CC(C)c1ccc(NC(=O)N(C)C)cc1	Bifidobacterium longum subsp. longum	criterion met
Nc1nc(N)nc(N)n1	Bifidobacterium longum subsp. longum	criterion met
O=P(OC(CCl)CCl)(OC(CCl)CCl)OC(CCl)CCl	Bifidobacterium longum subsp. longum	criterion met

Task: Kindly determine if growth AUC recorded for CNC(=O)/C=C(\C)OP(=O)(OC)OC is above or exactly 1.
Output: criterion not met

Task: Kindly determine if growth AUC recorded for CNC(=O)Oc1cccc(N=CN(C)C)c1.Cl is above or exactly 1.
Output: criterion met

Task: Kindly determine if growth AUC recorded for CCOP(=O)(N=C1SCC(C)S1)OCC (configuration not stated) is above or exactly 1.
Output: criterion met

Task: Kindly determine if growth AUC recorded for ClC1=C(Cl)C2(Cl)C3C(Cl)C=CC3C1(Cl)C2(Cl)Cl (configuration not stated) is above or exactly 1.
Output: criterion not met

====

tested on: Odoribacter splanchnicus; assay: growth AUC relative to DMSO control (median of replicates) (fraction); higher = more growth (less inhibition), active = hit call of the paper; details: 20 µM; 24 h;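 active = AUC reduced over 20% with Padj below 0.05 in at least 2 of 3 replicates; inactive = otherwise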
Respond using exactly one of the listed classes: 1 (yes) for active, 0 (no) for inactive

Task: Could you please tell me the result logged for OC[C@@H](O)[C@H]1O[C@@H]2O[C@H](C(Cl)(Cl)Cl)O[C@@H]2[C@H]1O (mixture of isomers) in this assay?
Output: 0 (no)
